- test summary: Probe fluorescence ratio response to arachidonic acid relative to ADIFAB2
- Assay type: binding
- condition summary: arachidonic acid; response relative to ADIFAB2
Assign DR/DR AA to each entry below.
Give bare numbers.

Consider the reported DR/DR AA for these molecules:
18V 31I 55L 73V 72A (protein, listed as Rattus norvegicus, PEPTIDE (1)...(131) wild-type rat intestinal fatty acid binding protein) AFDGTWKVDRNENYEKFVEKMGINVVKRKLIAHDNLKLTITQEGNKFTVKESSNLRNIDVVFELGVDFAYSAVDGTELTGTWTMEGNKLVGKFKRVDNGKELIAVREISGNELIQTYTYEGVEAKRIFKKE
2.273
117M, 72A (protein, listed as Rattus norvegicus, PEPTIDE (1)...(131) wild-type rat intestinal fatty acid binding protein) AFDGTWKVDRNENYEKFMEKMGINVVKRKLGAHDNLKLTITQEGNKFTVKESSNFRNIDVVFELGVDFAYSAADGTELTGTWTMEGNKLVGKFKRVDNGKELIAVREISGNELIQTMTYEGVEAKRIFKKE
1.27
34K, 72A (protein, listed as Rattus norvegicus, PEPTIDE (1)...(131) wild-type rat intestinal fatty acid binding protein) AFDGTWKVDRNENYEKFMEKMGINVVKRKLGAHKNLKLTITQEGNKFTVKESSNFRNIDVVFELGVDFAYSAADGTELTGTWTMEGNKLVGKFKRVDNGKELIAVREISGNELIQTYTYEGVEAKRIFKKE
0.43

Look at each molecule and report its DR/DR AA.
1. 38Y 74F 72A (protein, listed as Rattus norvegicus, PEPTIDE (1)...(131) wild-type rat intestinal fatty acid binding protein) AFDGTWKVDRNENYEKFMEKMGINVVKRKLGAHDNLKYTITQEGNKFTVKESSNFRNIDVVFELGVDFAYSAAFGTELTGTWTMEGNKLVGKFKRVDNGKELIAVREISGNELIQTYTYEGVEAKRIFKKE
2. 47M, 72A (protein, listed as Rattus norvegicus, PEPTIDE (1)...(131) wild-type rat intestinal fatty acid binding protein) AFDGTWKVDRNENYEKFMEKMGINVVKRKLGAHDNLKLTITQEGNKMTVKESSNFRNIDVVFELGVDFAYSAADGTELTGTWTMEGNKLVGKFKRVDNGKELIAVREISGNELIQTYTYEGVEAKRIFKKE
3. 18G 31F 73L 72A (protein, listed as Rattus norvegicus, PEPTIDE (1)...(131) wild-type rat intestinal fatty acid binding protein) AFDGTWKVDRNENYEKFGEKMGINVVKRKLFAHDNLKLTITQEGNKFTVKESSNFRNIDVVFELGVDFAYSALDGTELTGTWTMEGNKLVGKFKRVDNGKELIAVREISGNELIQTYTYEGVEAKRIFKKE

[0.605, 1.138, 1.785]
